# testedSystem: KRas G12A (Homo sapiens, UniProt P01116, G12A);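 also: binding to KRas measured by TR-FRET displacement after one hour at room temperature, IC50 from a four-parameter fit of percent-of-control values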
# Sequence (P01116 1-169 isoform P01116-2 G12A): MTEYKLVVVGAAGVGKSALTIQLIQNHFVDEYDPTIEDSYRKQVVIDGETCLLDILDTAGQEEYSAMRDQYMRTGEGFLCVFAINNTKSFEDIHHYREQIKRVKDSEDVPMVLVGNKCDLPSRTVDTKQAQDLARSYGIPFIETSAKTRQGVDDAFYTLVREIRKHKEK
# assayExplanation: biochemical
pIC50: −log10 of the molar value.
Recorded pIC50 for the following compounds

{"compound": "NC(=O)N1CC(Nc2nc(OCC34CCCN3CCC4)nc3c(F)c(-c4cccc5cccc(Cl)c45)ncc23)C1 [Example 107]", "pIC50": 5.19}
{"compound": "OC1CC2(CCCN(c3nc(OCC45CCCN4CCC5)nc4c(F)c(-c5cccc6cccc(F)c56)ncc34)C2)C1 (stereo not shown) [Example 235]", "pIC50": 5.67}
{"compound": "CC1(O)CCCN(c2nc(OCC34CCCN3CCC4)nc3c(F)c(-c4cccc5cccc(C6CC6)c45)ncc23)C1 (stereo not shown) [Example 440]", "pIC50": 6.12}
{"compound": "CCc1cccc2cccc(-c3ncc4c(N5CC6CC(O)C(C6)C5)nc(OCC56CCCN5CCC6)nc4c3F)c12 (stereo not shown) [Example 290]", "pIC50": 6.74}

###

# Tested on: pERK in H460 cells
# assayExplanation: Inhibition of KRas phosphorylation of ERK (Cisbio HTRF pERK assay)
# condition: Homo sapiens, NCI-H460, read-out: Inhibition (HTRF IC50) of KRas-mediated Phosphorylation of ERK, H460
pIC50: −log10 of the molar value.
Parameter: pIC50. Scope: all listed entries.
measure: pIC50

{"testSmiles": "CCc1c(F)ccc2cc(O)cc(-c3ncc4c(N5CCC[C@@](C)(O)C5)nc(OCC5(CN6CCOCC6)CC5)nc4c3F)c12", "dataValue": 7.66}
{"testSmiles": "CCc1c(F)ccc2cc(O)cc(-c3ncc4c(N5CCC[C@@](C)(O)C5)nc(OC[C@]56CCCN5[C@@H](COC(=O)N(C)C)CC6)nc4c3F)c12", "dataValue": 6.39}
{"testSmiles": "CCc1c(F)ccc2cc(O)cc(-c3ncc4c(N5CCCC6(CSC6)C5)nc(OC[C@@]56CCCN5C[C@H](F)C6)nc4c3F)c12", "dataValue": 7.77}

###

Below, each entry is listed with its recorded IC50.
# testedSystem: KRas G12C (Homo sapiens, UniProt P01116, G12C);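 also: binding to KRas assessed by TR-FRET displacement after one hour incubation at room temperature, potency fitted from percent-of-control values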
# Sequence (P01116 1-169 isoform P01116-2 G12C): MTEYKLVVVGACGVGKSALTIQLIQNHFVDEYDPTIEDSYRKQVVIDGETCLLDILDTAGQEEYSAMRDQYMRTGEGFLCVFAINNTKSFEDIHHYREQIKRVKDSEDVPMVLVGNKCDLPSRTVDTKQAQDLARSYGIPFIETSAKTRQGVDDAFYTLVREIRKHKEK
# assayExplanation: biochemical

{"compound": "Fc1c(-c2cccc3cccc(F)c23)ncc2c(NCc3ncc4cc[nH]c4n3)nc(OCC34CCCN3CCC4)nc12 [Example 92]", "testedSystem": "KRas G12C (Homo sapiens, UniProt P01116, G12C)", "IC50 [µM]": 3.41}
{"compound": "CC1(O)CCCN(c2nc(OCC34CCCN3CCC4)nc3c(F)c(-c4cccc5cccc(F)c45)ncc23)C1 (stereo not shown) [Example 17]", "testedSystem": "KRas G12C (Homo sapiens, UniProt P01116, G12C)", "IC50 [µM]": 1.19}
{"compound": "O=S1(=O)NCCC2(CCCN(c3nc(OCC45CCCN4CCC5)nc4c(F)c(-c5cccc6cccc(F)c56)ncc34)C2)N1 (stereo not shown) [Example 247]", "testedSystem": "KRas G12C (Homo sapiens, UniProt P01116, G12C)", "IC50 [µM]": 2.68}
{"compound": "Cc1cccc2cccc(-c3ncc4c(N5CCCC6(C5)NC(=O)NC6=O)nc(OCC56CCCN5CCC6)nc4c3F)c12 (stereo not shown) [Example 448]", "testedSystem": "KRas G12C (Homo sapiens, UniProt P01116, G12C)", "IC50 [µM]": 0.053}

The measured values listed here are drawn from patent US12398154B2.
